Source: patent US9376420B2

- Tested On: UniProt P55055
- Sequence (P55055 222-460 limits assumed): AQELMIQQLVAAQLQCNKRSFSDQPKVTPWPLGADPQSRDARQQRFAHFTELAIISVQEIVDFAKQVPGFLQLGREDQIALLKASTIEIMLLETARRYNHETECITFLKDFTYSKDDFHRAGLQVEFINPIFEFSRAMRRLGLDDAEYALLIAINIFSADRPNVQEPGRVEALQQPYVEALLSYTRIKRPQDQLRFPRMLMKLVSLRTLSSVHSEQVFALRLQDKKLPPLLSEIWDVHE
- Assay Method Text: Assay for Transcriptional Activity of LXRβ (GAL4-hLXRβ LBD luciferase reporter, transient transfection)
- Measurement Setup: increase of transcriptional activity of LXRβ; HEK293 cells transfected with pFA-hLXRβ/GAL4 and pUAS; 24 hours; average of three independent tests
- Text: […] The following tables 1 and 2 show the EC50 values of the test compounds measured as in the above. […]
# EC50 listing for each entry below

{"Molecule": "CS(=O)(=O)c1cccc(-c2ccc(C3CC(C(O)(C(F)(F)F)C(F)(F)F)=NN3c3ccccc3Cl)c(F)c2)c1 (stereo not shown)", "Value Units": "nM", "EC50": 42}
{"Molecule": "OC(C1=NN(c2ccccc2Cl)C(c2ccc(-c3cc(F)c(-n4cncn4)cc3F)cc2)C1)(C(F)(F)F)C(F)(F)F (stereo not shown)", "Value Units": "nM", "EC50": 519}
{"Molecule": "CS(=O)(=O)c1ccc(-c2cncc(C3CC(C(F)(F)C(F)(F)F)=NN3c3ccc(F)cc3F)c2)cn1 (stereo not shown)", "Value Units": "nM", "EC50": 7050}
{"Molecule": "COc1ccc(-c2ccc(C3CC(C(O)(C(F)(F)F)C(F)(F)F)=NN3c3ccccc3Cl)cc2F)cn1 (stereo not shown)", "Value Units": "nM", "EC50": 1920}
{"Molecule": "CS(=O)(=O)c1cccc(-c2ccc(C3CC(C(F)(F)C(F)(F)F)=NN3c3ccc(F)cc3F)cc2)c1 (stereo not shown)", "Value Units": "nM", "EC50": 692}
{"Molecule": "CS(=O)(=O)c1ccc(-c2ccc(C3CC(C(O)(C(F)(F)F)C(F)(F)F)=NN3c3ccccc3Cl)cc2)cc1C#N (stereo not shown)", "Value Units": "nM", "EC50": 161}
{"Molecule": "CN(CCO)S(=O)(=O)c1cccc(-c2ccc(C3CC(C(O)(C(F)(F)F)C(F)(F)F)=NN3c3ccccc3Cl)cc2)c1 (stereo not shown)", "Value Units": "nM", "EC50": 270}

* * *

- Tested On: human LXRβ (Homo sapiens, UniProt P55055)
- Construct: expressed in transfected cells; host or cells: HEK293 cells (ATCC CRL-1573), transient transfection with pFA-hLXRβ/GAL4 and pUAS
- Assay Method Text: Assay for Transcriptional Activity of LXRβ (GAL4-hLXRβ LBD luciferase reporter, transient transfection)
- Format: cell-based
- Measurement Setup: fold value in comparison with the control (DMSO-treated group); HEK293 cells transfected with pFA-hLXRβ/GAL4 and pUAS; 24 hours
Value Type: Emax (fold)

{"Compound": "COc1cc(C)c(-c2ccc(C3CC(C(O)(C(F)(F)F)C(F)(F)F)=NN3c3ccccc3Cl)cc2)cn1 (stereo not shown)", "Quantitative Readout": 48}
{"Compound": "CS(=O)(=O)c1ccc(-c2ccc(C3CC(C(O)(C(F)(F)F)C(F)(F)F)=NN3c3ccccc3Cl)cc2F)cc1 (stereo not shown)", "Quantitative Readout": 68}
{"Compound": "CCS(=O)(=O)N1CCN(c2ccc(C3CC(C(O)(C(F)(F)F)C(F)(F)F)=NN3c3ccccc3Cl)cc2)CC1 (stereo not shown)", "Quantitative Readout": 56}
{"Compound": "N#Cc1ncccc1-c1ccc(C2CC(C(O)(C(F)(F)F)C(F)(F)F)=NN2c2ccc(F)cc2F)cc1 (stereo not shown)", "Quantitative Readout": 38}
{"Compound": "O=S(=O)(C1CC1)N1CCN(c2ccc(C3CC(C(O)(C(F)(F)F)C(F)(F)F)=NN3c3ccccc3Cl)cc2)CC1 (stereo not shown)", "Quantitative Readout": 59}
{"Compound": "COc1ncc(-c2ccc(C3CC(C(O)(C(F)(F)F)C(F)(F)F)=NN3c3ccccc3Cl)cc2)cn1 (stereo not shown)", "Quantitative Readout": 67}
{"Compound": "CN(C)S(=O)(=O)N1CC=C(c2ccc(C3CC(C(O)(C(F)(F)F)C(F)(F)F)=NN3c3ccccc3Cl)cc2)CC1 (stereo not shown)", "Quantitative Readout": 66}

* * *

# Emax listing for each entry below
- Tested On: human LXRβ (Homo sapiens, UniProt P55055)
- Construct: expressed in transfected cells; host or cells: HEK293 cells (ATCC CRL-1573), transient transfection with pFA-hLXRβ/GAL4 and pUAS
- Assay Method Text: Assay for Transcriptional Activity of LXRβ (GAL4-hLXRβ LBD luciferase reporter, transient transfection)
- Type: cell-based
- Measurement Setup: fold value in comparison with the control (DMSO-treated group); HEK293 cells transfected with pFA-hLXRβ/GAL4 and pUAS; 24 hours
Value Type: Emax (fold)

{"Compound": "Cc1ccccc1-c1ccc(C2CC(C(O)(C(F)(F)F)C(F)(F)F)=NN2c2ccc(F)cc2F)cc1 (stereo not shown) [Example 371]", "Value Units": "fold", "Quantitative Readout": 34}
{"Compound": "CCS(=O)(=O)N1CC=C(c2ccc(C3CC(C(O)(C(F)(F)F)C(F)(F)F)=NN3c3ccccc3Cl)cc2)CC1 (stereo not shown) [Example 299]", "Value Units": "fold", "Quantitative Readout": 83}
{"Compound": "COc1cccc(OC)c1-c1ccc(C2CC(C(O)(C(F)(F)F)C(F)(F)F)=NN2c2ccccc2Cl)cc1 (stereo not shown) [Example 245]", "Value Units": "fold", "Quantitative Readout": 57}
{"Compound": "CS(=O)(=O)c1ccc(-c2ccc(C3CC(C(O)(C(F)(F)F)C(F)(F)F)=NN3c3ccccc3Cl)cc2)cn1 (stereo not shown) [Example 335]", "Value Units": "fold", "Quantitative Readout": 94}
{"Compound": "CN(C)S(=O)(=O)N1CCCN(c2ccc(C3CC(C(O)(C(F)(F)F)C(F)(F)F)=NN3c3ccc(F)cc3F)cc2)CC1 (stereo not shown) [Example 411]", "Value Units": "fold", "Quantitative Readout": 62}
{"Compound": "CSc1ccc(-c2cccc(C3CC(C(F)(F)C(F)(F)F)=NN3c3ccc(F)cc3F)c2)cc1 (stereo not shown) [Example 30]", "Value Units": "fold", "Quantitative Readout": 66}
{"Compound": "O=S(=O)(C1CC1)N1CC=C(c2cncc(C3CC(C(F)(F)C(F)(F)F)=NN3c3ccc(F)cc3F)c2)CC1 (stereo not shown) [Example 168]", "Value Units": "fold", "Quantitative Readout": 30}

* * *

- Tested On: human LXRβ (Homo sapiens)
- Assay Method Text: Assay for Transcriptional Activity of LXRβ (GAL4-hLXRβ LBD luciferase reporter, transient transfection)
- Measurement Setup: increase of transcriptional activity of LXRβ; HEK293 cells transfected with pFA-hLXRβ/GAL4 and pUAS; 24 hours; average of three independent tests

{"Compound": "CN(CCO)S(=O)(=O)c1cccc(-c2cccc(N3N=C(C(F)(F)C(F)(F)F)CC3c3ccc(F)cc3F)c2)c1 (stereo not shown)", "EC50 (µM)": 4.47}
{"Compound": "O=S(=O)(C1CC1)N1CC=C(c2cncc(C3CC(C(F)(F)C(F)(F)F)=NN3c3ccc(F)cc3F)c2)CC1 (stereo not shown)", "EC50 (µM)": 6.12}
{"Compound": "Cc1ccccc1-c1ccc(C2CC(C(O)(C(F)(F)F)C(F)(F)F)=NN2c2ccc(F)cc2F)cc1 (stereo not shown)", "EC50 (µM)": 0.636}
{"Compound": "CS(=O)(=O)c1cccc(-c2cccc(N3N=C(C(F)(F)C(F)(F)F)CC3c3ccc(F)cc3F)c2)c1 (stereo not shown)", "EC50 (µM)": 1.4}

* * *

- Tested On: human LXRβ (Homo sapiens)
- Construct: expressed in transfected cells; host or cells: HEK293 cells (ATCC CRL-1573), transient transfection with pFA-hLXRβ/GAL4 and pUAS
- Sequence (P55055 222-460 limits assumed): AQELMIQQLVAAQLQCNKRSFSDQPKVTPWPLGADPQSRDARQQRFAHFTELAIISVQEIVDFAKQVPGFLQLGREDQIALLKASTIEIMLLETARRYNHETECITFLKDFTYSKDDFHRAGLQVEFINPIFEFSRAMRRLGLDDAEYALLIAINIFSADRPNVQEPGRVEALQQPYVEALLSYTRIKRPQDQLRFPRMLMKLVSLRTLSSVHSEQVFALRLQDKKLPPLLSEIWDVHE
- Assay Method Text: Assay for Transcriptional Activity of LXRβ (GAL4-hLXRβ LBD luciferase reporter, transient transfection)
- Assay type: cell-based
- Measurement Setup: fold value in comparison with the control (DMSO-treated group); HEK293 cells transfected with pFA-hLXRβ/GAL4 and pUAS; 24 hours
# Emax listing for each entry below

{"Compound": "CC(=O)N1CC=C(c2cccc(C3CC(C(O)(C(F)(F)F)C(F)(F)F)=NN3c3ccccc3Cl)c2)CC1 (centres unmarked)", "Emax": "107 fold"}
{"Compound": "CC(=O)c1cccc(-c2ccc(C3CC(C(O)(C(F)(F)F)C(F)(F)F)=NN3c3ccccc3Cl)cc2F)c1 (centres unmarked)", "Emax": "39 fold"}
{"Compound": "CCOc1cccc(-c2ccc(C3CC(C(O)(C(F)(F)F)C(F)(F)F)=NN3c3ccccc3Cl)cc2)c1 (centres unmarked)", "Emax": "96 fold"}
{"Compound": "CCOc1cccc(-c2ccc(C3CC(C(O)(C(F)(F)F)C(F)(F)F)=NN3c3ccccc3Cl)c(F)c2)c1 (centres unmarked)", "Emax": "71 fold"}
{"Compound": "CS(=O)(=O)N1CCN(c2cc(C3CC(C(F)(F)C(F)(F)F)=NN3c3ccc(F)cc3F)ccn2)CC1 (centres unmarked)", "Emax": "95 fold"}
{"Compound": "CS(=O)(=O)c1cccc(-c2ccc(C3CC(C(O)(C(F)(F)F)C(F)(F)F)=NN3c3ccccc3Cl)s2)c1 (centres unmarked)", "Emax": "82 fold"}
{"Compound": "CC(C)(C)OC(=O)N1CC=C(c2ccc(C3CC(C(O)(C(F)(F)F)C(F)(F)F)=NN3c3ccccc3Cl)c(F)c2)CC1 (centres unmarked)", "Emax": "21 fold"}
{"Compound": "O=S(=O)(C1CC1)N1CC=C(c2ccc(C3CC(C(O)(C(F)(F)F)C(F)(F)F)=NN3c3ccccc3Cl)cc2)CC1 (centres unmarked)", "Emax": "104 fold"}
{"Compound": "COc1ncc(-c2ccc(C3CC(C(O)(C(F)(F)F)C(F)(F)F)=NN3c3ccccc3Cl)cc2)cc1C=O (centres unmarked)", "Emax": "55 fold"}
{"Compound": "Fc1ccc(N2N=C(C(F)(F)C(F)(F)F)CC2c2ccc(F)c(-c3ccc(Cl)nc3)c2)c(F)c1 (centres unmarked)", "Emax": "34 fold"}
{"Compound": "O=S(=O)(C1CC1)N1CC=C(c2ccc(C3CC(C(O)(C(F)(F)F)C(F)(F)F)=NN3c3ccccc3Cl)cn2)CC1 (centres unmarked)", "Emax": "92 fold"}
{"Compound": "CS(=O)(=O)c1ccc(-c2ccc(C3CC(C(O)(C(F)(F)F)C(F)(F)F)=NN3c3ccc(F)cc3F)cc2)cc1F (centres unmarked)", "Emax": "27 fold"}
{"Compound": "O=C(Cc1ccccc1)N1CC=C(c2cccc(C3CC(C(O)(C(F)(F)F)C(F)(F)F)=NN3c3ccccc3Cl)c2)CC1 (centres unmarked)", "Emax": "71 fold"}
{"Compound": "OC(C1=NN(c2ccccc2Cl)C(c2ccc(-c3cccnc3F)cc2)C1)(C(F)(F)F)C(F)(F)F (centres unmarked)", "Emax": "54 fold"}
